Source: patent US20180099931A1

Molecular target: F508delCFTR (Homo sapiens, UniProt P13569, DEL508-508)
Construct: expressed in transfected cells; host or cells: CFBE41o- human lung-derived epithelial cells (CFBE4lo-F508delCFTR-HRP), doxycycline-inducible
Sequence (P13569 with tags, fused parts or gaps DEL508-508): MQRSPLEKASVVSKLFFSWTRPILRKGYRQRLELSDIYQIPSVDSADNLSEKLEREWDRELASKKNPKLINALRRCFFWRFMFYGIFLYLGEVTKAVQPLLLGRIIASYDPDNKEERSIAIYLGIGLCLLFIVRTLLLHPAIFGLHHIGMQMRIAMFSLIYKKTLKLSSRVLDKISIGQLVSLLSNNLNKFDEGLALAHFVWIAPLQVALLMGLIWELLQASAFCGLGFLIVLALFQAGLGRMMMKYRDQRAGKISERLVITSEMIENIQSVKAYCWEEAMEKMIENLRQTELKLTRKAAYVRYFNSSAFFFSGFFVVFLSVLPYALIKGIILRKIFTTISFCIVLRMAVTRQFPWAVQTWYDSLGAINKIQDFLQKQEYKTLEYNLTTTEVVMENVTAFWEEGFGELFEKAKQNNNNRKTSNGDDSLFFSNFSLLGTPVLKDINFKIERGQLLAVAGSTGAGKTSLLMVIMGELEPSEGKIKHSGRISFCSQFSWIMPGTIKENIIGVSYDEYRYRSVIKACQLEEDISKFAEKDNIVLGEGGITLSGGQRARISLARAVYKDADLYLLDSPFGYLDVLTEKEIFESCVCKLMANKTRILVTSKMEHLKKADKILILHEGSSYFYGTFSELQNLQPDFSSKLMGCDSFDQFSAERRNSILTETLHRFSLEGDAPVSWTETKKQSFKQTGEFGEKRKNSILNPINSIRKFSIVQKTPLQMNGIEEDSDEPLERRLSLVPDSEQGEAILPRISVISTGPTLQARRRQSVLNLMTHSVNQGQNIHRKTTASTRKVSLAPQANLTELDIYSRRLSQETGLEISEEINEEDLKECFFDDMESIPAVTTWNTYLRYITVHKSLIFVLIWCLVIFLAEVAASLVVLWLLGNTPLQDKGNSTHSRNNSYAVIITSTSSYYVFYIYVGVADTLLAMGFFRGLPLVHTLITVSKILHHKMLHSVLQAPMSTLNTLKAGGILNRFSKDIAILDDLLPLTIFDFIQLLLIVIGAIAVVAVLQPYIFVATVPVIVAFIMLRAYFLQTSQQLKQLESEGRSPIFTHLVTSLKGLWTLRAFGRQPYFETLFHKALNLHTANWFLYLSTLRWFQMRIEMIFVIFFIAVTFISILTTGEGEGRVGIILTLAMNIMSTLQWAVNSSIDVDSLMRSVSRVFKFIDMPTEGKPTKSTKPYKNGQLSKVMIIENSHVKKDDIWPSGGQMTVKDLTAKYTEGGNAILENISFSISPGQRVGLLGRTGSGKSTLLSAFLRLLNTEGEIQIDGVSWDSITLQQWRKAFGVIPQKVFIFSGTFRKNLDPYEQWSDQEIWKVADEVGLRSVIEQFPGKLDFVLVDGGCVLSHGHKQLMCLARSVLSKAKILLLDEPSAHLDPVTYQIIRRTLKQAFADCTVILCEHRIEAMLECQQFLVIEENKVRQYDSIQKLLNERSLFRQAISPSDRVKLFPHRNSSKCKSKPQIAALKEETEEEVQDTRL
Assay: Cell Surface Expression-Horse Radish Peroxidase (CSE-HRP) Assay
Type: cell-based
Settings: test compound without co-corrector; read-out: EC50 (without co-corrector)
Procedure: Cell Surface Expression-Horse Radish Peroxidase (CSE-HRP) Assay The development was achieved by expressing the F508delCFTR mutation along with a horseradish peroxidase (HRP) in the fourth exofacial loop, and then measuring the HRP activity using luminescence readout from these cells, CFBE4lo-F508delCFTR-HRP, that were incubated overnight with the test corrector compounds, either without or with the co-corrector. […] The raw counts from the experiment were analyzed using Accelrys® Assay Explorer v3.3. […]
pEC50: −log10 of the molar value.

>  <COMPOUND>
CC(C)(C)[C@H]1[C@H](NCc2ccc3c(c2)CCCO3)[C@H](c2ccccc2)N(C(=O)C2CCCCC2)[C@@H]1C(=O)O [III-120]

>  <SYSTEM UNDER TEST>
F508delCFTR (Homo sapiens, UniProt P13569, DEL508-508)

>  <pEC50>
< 5.00

$$$$
>  <COMPOUND>
COc1ccc(C(C)(C)C)cc1CN[C@H]1[C@H](C(C)(C)C)[C@@H](C(=O)O)N(C(=O)C(C)n2cc(Cl)cn2)[C@H]1c1ccccc1 (stereo partly drawn) [Example I-103]

>  <SYSTEM UNDER TEST>
F508delCFTR (Homo sapiens, UniProt P13569, DEL508-508)

>  <pEC50>
5.00 to 6.00

$$$$
>  <COMPOUND>
COc1ccc(C2CCOCC2)cc1CN[C@H]1[C@H](C(C)(C)C)[C@@H](C(=O)O)N(C(=O)C2CCCCC2)[C@H]1c1ccccc1 [II-340]

>  <SYSTEM UNDER TEST>
F508delCFTR (Homo sapiens, UniProt P13569, DEL508-508)

>  <pEC50>
5.00 to 6.00

$$$$
>  <COMPOUND>
COc1ccc(C(C)(C)C)cc1CN[C@H]1[C@H](C(C)(C)C)[C@@H](C(=O)O)N(C(=O)C2Cc3ccccc3CO2)[C@H]1c1cccnc1N(C)C (single isomer, unassigned) [II-481]

>  <SYSTEM UNDER TEST>
F508delCFTR (Homo sapiens, UniProt P13569, DEL508-508)

>  <pEC50>
5.00 to 6.00

$$$$
>  <COMPOUND>
CC(C)(C)[C@@H]1[C@@H](Nc2cc(Cl)ccn2)[C@@H](c2ccccc2)N(C(=O)C2CCCCC2)[C@H]1C(=O)O (racemic) [III-6]

>  <SYSTEM UNDER TEST>
F508delCFTR (Homo sapiens, UniProt P13569, DEL508-508)

>  <pEC50>
< 5.00

$$$$
>  <COMPOUND>
COc1ccc(C2(C)CCC2)cc1CN[C@H]1[C@H](C(C)(C)C)[C@@H](C(=O)O)N(C(=O)[C@@H]2CCCO2)[C@H]1c1ccccc1C1CC1 [Example 112]

>  <SYSTEM UNDER TEST>
F508delCFTR (Homo sapiens, UniProt P13569, DEL508-508)

>  <pEC50>
5.00 to 6.00

$$$$
>  <COMPOUND>
COc1ccc(C(C)(C)C)cc1CN[C@H]1[C@H](C(C)(C)C)[C@@H](C(=O)O)N(C(=O)[C@]2(C)COc3cc4c(cc32)OC(F)(F)O4)[C@H]1c1cccnc1OC [III-230]

>  <SYSTEM UNDER TEST>
F508delCFTR (Homo sapiens, UniProt P13569, DEL508-508)

>  <pEC50>
5.00 to 6.00

$$$$
>  <COMPOUND>
COc1ccc(C(F)(F)F)cc1CN[C@H]1[C@H](C(C)(C)OC)[C@@H](C(=O)O)N(C(=O)C2CCCCC2)[C@H]1c1cccnc1N(C)C [II-437]

>  <SYSTEM UNDER TEST>
F508delCFTR (Homo sapiens, UniProt P13569, DEL508-508)

>  <pEC50>
5.00 to 6.00

$$$$
>  <COMPOUND>
COc1ccc(C(C)(C)C)cc1CN[C@H]1[C@H](C(C)(C)C)[C@@H](C(=O)O)N(C(=O)CC2CCCCO2)[C@H]1c1ccccc1 (stereo partly drawn) [Example 20]

>  <SYSTEM UNDER TEST>
F508delCFTR (Homo sapiens, UniProt P13569, DEL508-508)

>  <pEC50>
5.00 to 6.00

$$$$
>  <COMPOUND>
COc1ccc(C2(C)CCC2)cc1CN[C@H]1[C@H](C(C)(C)C)[C@@H](C(=O)O)N(C(=O)OC(C)C)[C@H]1c1cccnc1N(C)C [Example 80]

>  <SYSTEM UNDER TEST>
F508delCFTR (Homo sapiens, UniProt P13569, DEL508-508)

>  <pEC50>
5.00 to 6.00

$$$$
>  <COMPOUND>
COc1ncc(C(F)(F)F)cc1CN[C@H]1[C@H](C(C)(C)C)[C@@H](C(=O)O)N(C(=O)C2CCCCC2)[C@H]1c1ccccc1 [Example 12]

>  <SYSTEM UNDER TEST>
F508delCFTR (Homo sapiens, UniProt P13569, DEL508-508)

>  <pEC50>
> 6.00

$$$$
>  <COMPOUND>
COc1ccc(C23CC(C2)C3)cc1CN[C@H]1[C@H](C(C)(C)C)[C@@H](C(=O)O)N(C(=O)[C@@H]2CCC[C@@H](OC)C2)[C@H]1c1ccccc1 [II-479]

>  <SYSTEM UNDER TEST>
F508delCFTR (Homo sapiens, UniProt P13569, DEL508-508)

>  <pEC50>
5.00 to 6.00

$$$$

###

molecular target: F508delCFTR (Homo sapiens, UniProt P13569, DEL508-508); construct: expressed in transfected cells; host or cells: CFBE41o- human lung-derived epithelial cells (CFBE4lo-F508delCFTR-HRP), doxycycline-inducible; experiment: Cell Surface Expression-Horse Radish Peroxidase (CSE-HRP) Assay; type: cell-based; settings: with co-corrector (2 μM of 3-[(2R,4R)-4-({[1-(2,2-difluoro-1,3-benzodioxol-5-yl)cyclopropyl]carbonyl}amino)-7-methoxy-3,4-dihydro-2H-chromen-2-yl]benzoic acid); read-out: EC50 (with co-corrector)
MEASURED QUANTITY: EC50

>  <COMPOUND>
COc1nc(C2CCC2)ccc1CN[C@H]1[C@H](C(C)(C)C)[C@@H](C(=O)O)N(C(=O)OC(C)C)[C@H]1c1cccnc1N(C)C

>  <RESULT>
1 to 10 µM

$$$$
>  <COMPOUND>
COc1cc(Cl)ccc1CN[C@@H]1[C@@H](C(C)(C)C)[C@H](C(=O)O)N(C(=O)C2CCCCC2)[C@@H]1c1ccccc1 (racemic)

>  <RESULT>
1 to 10 µM

$$$$
>  <COMPOUND>
COc1ncc(C(F)(F)F)cc1CN[C@H]1[C@H](C(C)(C)C)[C@@H](C(=O)O)N(C(=O)OC(C)C)[C@H]1c1cccnc1N1CCC1

>  <RESULT>
1 to 10 µM

$$$$
>  <COMPOUND>
CC(C)(C)[C@H]1[C@H](NCc2cc(Cl)ccc2O)[C@H](c2ccccc2)N(C(=O)C2CCCCC2)[C@@H]1C(=O)O

>  <RESULT>
1 to 10 µM

$$$$
>  <COMPOUND>
COc1ccc(C23CC(C2)C3)cc1CN[C@H]1[C@H](C(C)(C)C)[C@@H](C(=O)O)N(C(=O)C2CCCCC2)[C@H]1c1ccccc1OC

>  <RESULT>
< 1 µM

$$$$
>  <COMPOUND>
CC(C)(C)[C@H]1[C@H](NCc2ccc3c(c2)CCO3)[C@H](c2ccccc2)N(C(=O)C2CCCCC2)[C@@H]1C(=O)O

>  <RESULT>
1 to 10 µM

$$$$

###

Each record here notes measured Emax.
Biological target: F508delCFTR (Homo sapiens, UniProt P13569, DEL508-508)
Construct: expressed in transfected cells; host or cells: CFBE41o- human lung-derived epithelial cells (CFBE4lo-F508delCFTR-HRP), doxycycline-inducible
Test: Cell Surface Expression-Horse Radish Peroxidase (CSE-HRP) Assay
Format: cell-based
Conditions: without co-corrector; maximum at any tested concentration, normalized to on-plate positive control; read-out: Maximum % activity (without co-corrector)
Procedure: Cell Surface Expression-Horse Radish Peroxidase (CSE-HRP) Assay The development was achieved by expressing the F508delCFTR mutation along with a horseradish peroxidase (HRP) in the fourth exofacial loop, and then measuring the HRP activity using luminescence readout from these cells, CFBE4lo-F508delCFTR-HRP, that were incubated overnight with the test corrector compounds, either without or with the co-corrector. […] The raw counts from the experiment were analyzed using Accelrys® Assay Explorer v3.3. […]

>  <MOLECULE>
COc1ncc(-c2ccccc2)cc1CN[C@H]1[C@H](C(C)(C)C)[C@@H](C(=O)O)N(C(=O)C2CCCCC2)[C@H]1c1ccccc1

>  <Emax>
100 to 200%

$$$$
>  <MOLECULE>
COc1c(C#N)c(N[C@H]2[C@H](C(C)(C)C)[C@@H](C(=O)O)N(C(=O)C3CCCCC3)[C@H]2c2ccccc2)nc2ccccc12

>  <Emax>
< 100%

$$$$
>  <MOLECULE>
COc1cc(C(F)(F)F)ccc1CN[C@H]1[C@H](C(C)(C)C)[C@@H](C(=O)O)N(C(=O)OC(C)C)[C@H]1c1cccnc1OC(C)C

>  <Emax>
100 to 200%

$$$$
>  <MOLECULE>
COc1ncc(C2CCC2)cc1CN[C@H]1[C@H](C(C)(C)C)[C@@H](C(=O)O)N(C(=O)OC(C)C)[C@H]1c1ccccc1C

>  <Emax>
> 200%

$$$$
>  <MOLECULE>
COc1ccc(C(C)(C)C)cc1CN[C@H]1[C@H](C(C)(C)C)[C@@H](C(=O)O)N(C(=O)OC(C)C)[C@H]1c1ccccc1

>  <Emax>
> 200%

$$$$
>  <MOLECULE>
Cc1cc(C(F)(F)F)cc(N[C@@H]2[C@@H](C(C)(C)C)[C@H](C(=O)O)N(C(=O)C3CCCCC3)[C@@H]2c2ccccc2)n1 (racemic) [Example 1]

>  <Emax>
< 100%

$$$$
>  <MOLECULE>
COc1ncc(C2CCC2)cc1CN[C@H]1[C@H](C(C)(C)C)[C@@H](C(=O)O)N(C(=O)C2CCCCC2)[C@H]1c1ccccc1C(C)C

>  <Emax>
> 200%

$$$$
>  <MOLECULE>
COc1ccc(C(C)(C)C)cc1CN[C@H]1[C@H](C(C)(C)C)[C@@H](C(=O)O)N(C(=O)C2(C)CCc3cc(C)ccc32)[C@H]1c1ccccc1 (stereo partly drawn)

>  <Emax>
< 100%

$$$$
>  <MOLECULE>
COc1cc(C(F)(F)F)ccc1CN[C@H]1[C@H](C(C)(C)C)[C@@H](C(=O)O)N(C(=O)C2CCCCC2)[C@H]1c1cccnc1OC

>  <Emax>
100 to 200%

$$$$
>  <MOLECULE>
COc1cc(OC)nc(N[C@@H]2[C@@H](C(C)(C)C)[C@H](C(=O)O)N(C(=O)C3CCCCC3)[C@@H]2c2ccccc2)n1 (racemic)

>  <Emax>
< 100%

$$$$
>  <MOLECULE>
COc1ncc(C2CCC2)cc1CN[C@H]1[C@H](C(C)(C)C)[C@@H](C(=O)O)N(C(=O)OC(C)C)[C@H]1c1ccccc1

>  <Emax>
> 200%

$$$$
>  <MOLECULE>
Cc1cc(C(F)(F)F)cc(N[C@@H]2[C@@H](C(C)(C)C)[C@H](C(=O)O)N(C(=O)C3CCCCC3)[C@@H]2c2ccccc2)n1 [Example 3]

>  <Emax>
< 100%

$$$$
